Molecular target: NAD(P)H dehydrogenase [quinone] 1 (Mus musculus) (UniProt Q64669)
Sequence (Q64669 whole entry): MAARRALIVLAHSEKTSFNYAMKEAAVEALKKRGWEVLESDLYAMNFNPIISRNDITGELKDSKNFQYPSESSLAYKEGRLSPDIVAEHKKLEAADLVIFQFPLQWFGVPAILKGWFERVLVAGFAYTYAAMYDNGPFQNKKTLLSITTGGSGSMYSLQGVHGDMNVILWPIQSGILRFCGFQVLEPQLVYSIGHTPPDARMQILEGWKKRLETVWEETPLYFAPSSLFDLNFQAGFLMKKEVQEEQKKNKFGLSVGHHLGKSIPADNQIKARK
Assay: Induction of QR1 activity in mouse Hepa-1c1c7 cells using MTT as substrate by spectrophotometry
Assay type: cell-based
Parameter Measured: CD (µM)
Enter your answer as a number in µM; do not include the unit.

Here is how some molecules turned out for CD.
CC(C)(C)c1ccc(-c2nsc(-c3ccc(C(C)(C)C)cc3)n2)cc1 :: 27.7
c1cncc(-c2nsc(-c3cccnc3)n2)c1 :: 53.1

Kindly consider the entry below.
Query :: Looking for the measured CD of Clc1ccc(-c2nsc(-c3ccc(Cl)cc3)n2)cc1 , can you help?
Result :: 4

----------
Tested on: RAW264.7
Assay: Antiinflammatory activity in mouse RAW264.7 cells assessed as inhibition of LPS-induced NO production at 40 uM preincubated for 30 mins before LPS challenge by Griess method
// inhibition at 40 µM lookup, one value per entry
Enter your answer as a number in %; do not include the unit.

Ic1cccc(-c2nsc(-c3cccc(I)c3)n2)c1 :: 15.6
Oc1ccc(-c2nsc(-c3ccc(O)cc3)n2)cc1 :: 93.7
N#Cc1ccc(-c2nsc(-c3ccc(C#N)cc3)n2)cc1 :: -0.4

Query :: Looking for the measured inhibition at 40 µM of O=[N+]([O-])c1ccc(-c2nsc(-c3ccc([N+](=O)[O-])cc3)n2)cc1 , can you help?
Result :: 1.6

Query :: What do we get for c1cncc(-c2nsc(-c3cccnc3)n2)c1 ?
Result :: 1.3

Query :: What do we get for Ic1ccc(-c2nsc(-c3ccc(I)cc3)n2)cc1 ?
Result :: 20.3

----------
Biological target: NAD(P)H dehydrogenase [quinone] 1 (Mus musculus) (UniProt Q64669)
Assay: Induction of QR1 activity in mouse BPrc1 cells using MTT as substrate by spectrophotometry
Assay type: cell-based
// CD lookup, one value per entry
Enter your answer as a number in µM; do not include the unit.

Here is how some compounds turned out for CD.
Clc1ccc(Cl)c(-c2nsc(-c3cc(Cl)ccc3Cl)n2)c1 :: 44.5
Cc1c(Cl)cccc1-c1nsc(-c2cccc(Cl)c2C)n1 :: 38.2
Clc1ccccc1-c1nsc(-c2ccccc2Cl)n1 :: 34.6

Kindly consider the entry below.
Query :: State its CD on NAD(P)H dehydrogenase [quinone] 1 (Mus musculus) (UniProt Q64669): Ic1ccccc1-c1nsc(-c2ccccc2I)n1
Result :: 8.1

----------
Molecular target: UniProt Q64669
Experiment: Induction of QR1-mediated cytoprotective activity in mouse BPrc1 cells at 50 uM assessed as cell survival
Assay type: cell-based
// Survival lookup, one value per entry
Enter your answer as a number in %; do not include the unit.

Here is how some molecules turned out for Survival.
Cc1c(Cl)cccc1-c1nsc(-c2cccc(Cl)c2C)n1 :: 100
Brc1cccc(-c2nsc(-c3cccc(Br)c3)n2)c1 :: 92.3
c1cncc(-c2nsc(-c3cccnc3)n2)c1 :: 87.8

Kindly consider the entry below.
Query :: Looking for the measured Survival of Cc1cc(Br)ccc1-c1nsc(-c2ccc(Br)cc2C)n1 , can you help?
Result :: 95.9

----------
Molecular target: Aromatase (Homo sapiens)
Sequence (P11511 whole entry): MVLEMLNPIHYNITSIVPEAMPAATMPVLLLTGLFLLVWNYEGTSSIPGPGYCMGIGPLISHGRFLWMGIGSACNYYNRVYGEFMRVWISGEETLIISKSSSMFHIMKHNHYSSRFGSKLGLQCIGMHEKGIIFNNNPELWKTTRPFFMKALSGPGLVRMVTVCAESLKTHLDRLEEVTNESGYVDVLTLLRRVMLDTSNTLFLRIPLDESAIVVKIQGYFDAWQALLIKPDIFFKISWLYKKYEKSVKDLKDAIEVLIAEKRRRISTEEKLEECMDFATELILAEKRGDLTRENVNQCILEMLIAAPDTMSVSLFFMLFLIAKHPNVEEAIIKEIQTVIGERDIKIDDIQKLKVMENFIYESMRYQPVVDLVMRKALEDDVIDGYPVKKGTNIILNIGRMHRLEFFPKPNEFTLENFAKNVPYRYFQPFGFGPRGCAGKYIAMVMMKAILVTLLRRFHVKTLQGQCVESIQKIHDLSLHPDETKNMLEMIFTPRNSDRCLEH
Settings: 2 h, read-out: Imax
Decide using inhibition at 50 µM: a value greater than or equal to 40% is Satisfied, a smaller one is Not satisfied.

Previously resolved entries follow.
Clc1ccc(-c2nsc(-c3ccc(Cl)c(Cl)c3)n2)cc1Cl :: Not satisfied
Cc1cccc(-c2nsc(-c3cccc(C)c3)n2)c1 :: Not satisfied

Query :: Is inhibition at 50 µM at least 40%? Consider Oc1cccc(-c2nsc(-c3cccc(O)c3)n2)c1
Result :: Not satisfied

Query :: What do we get for Cc1cc(Br)ccc1-c1nsc(-c2ccc(Br)cc2C)n1 ?
Result :: Satisfied

Query :: What do we get for Cc1ccc(-c2nsc(-c3ccc(C)cc3)n2)cc1 ?
Result :: Not satisfied

Query :: What do we get for Brc1ccc(-c2nsc(-c3ccc(Br)cc3)n2)cc1 ?
Result :: Not satisfied

Each recorded value in this set is attributed to ChEMBL document CHEMBL1938272.
